SUBJECT OF TEST: T1, human CD48 (on primary human peripheral blood mononuclear cells) (human, UniProt P09326 27-220)
T1 sequence: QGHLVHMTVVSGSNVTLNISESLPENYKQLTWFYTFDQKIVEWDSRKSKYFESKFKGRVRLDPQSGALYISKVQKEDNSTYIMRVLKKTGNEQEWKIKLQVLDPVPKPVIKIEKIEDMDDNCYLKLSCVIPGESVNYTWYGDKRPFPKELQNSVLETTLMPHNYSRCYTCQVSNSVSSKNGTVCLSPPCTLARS
EXPERIMENTAL PROTOCOL: cell-based or functional assay
PROPERTY: % Blockade of IFNγ release, MLR; D6 (%)
Numbers only, in %.

1. H4H1775P (antibody, human IgG4, V domains shown, Human IgG4 Fc (H4H)) VH: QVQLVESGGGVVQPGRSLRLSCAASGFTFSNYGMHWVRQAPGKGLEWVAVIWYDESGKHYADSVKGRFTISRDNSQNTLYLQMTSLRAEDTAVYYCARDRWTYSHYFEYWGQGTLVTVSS VL: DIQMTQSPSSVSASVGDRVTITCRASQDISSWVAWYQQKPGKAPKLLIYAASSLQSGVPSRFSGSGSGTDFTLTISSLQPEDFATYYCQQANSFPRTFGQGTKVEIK ... 72
2. H4H1772P (antibody, human IgG4, V domains shown, Human IgG4 Fc (H4H)) VH: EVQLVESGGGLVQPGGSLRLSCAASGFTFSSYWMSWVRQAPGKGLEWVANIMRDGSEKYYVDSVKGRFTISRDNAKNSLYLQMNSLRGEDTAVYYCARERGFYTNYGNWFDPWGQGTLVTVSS VL: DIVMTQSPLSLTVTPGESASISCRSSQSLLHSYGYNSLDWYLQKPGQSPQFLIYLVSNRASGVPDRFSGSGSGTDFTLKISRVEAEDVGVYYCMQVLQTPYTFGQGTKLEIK ... 63
3. H4H1707N (antibody, V domains shown, Human IgG4 Fc (H4H) form of 1707N) VH: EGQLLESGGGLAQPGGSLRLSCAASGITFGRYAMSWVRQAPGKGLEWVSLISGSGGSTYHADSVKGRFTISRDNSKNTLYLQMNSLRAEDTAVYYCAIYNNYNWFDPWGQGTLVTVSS VL: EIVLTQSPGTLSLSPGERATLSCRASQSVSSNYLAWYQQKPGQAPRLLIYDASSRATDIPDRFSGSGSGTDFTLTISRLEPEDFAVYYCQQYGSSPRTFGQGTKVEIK ... 77
4. H4H1771P (antibody, human IgG4, V domains shown, Human IgG4 Fc (H4H)) VH: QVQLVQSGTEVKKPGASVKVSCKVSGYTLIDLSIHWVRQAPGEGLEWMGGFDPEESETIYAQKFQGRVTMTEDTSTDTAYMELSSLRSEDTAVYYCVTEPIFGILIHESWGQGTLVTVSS VL: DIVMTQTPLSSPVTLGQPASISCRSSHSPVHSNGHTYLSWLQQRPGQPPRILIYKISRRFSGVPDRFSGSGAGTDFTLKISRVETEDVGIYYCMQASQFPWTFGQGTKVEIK ... 50
5. H4H1769Pa (antibody, human IgG4, V domains shown) VH: QVQLVQSGAEVKKPGASVKVSCKTSGYTFAGYGITWVRQAPGRGLEWMGWVSAYNGDTDYAQSLQGRVTMTTDTSTSTAYMELRSLRSDDTAMYYCARDRYSSSSGYFDYWGQGTLVTVSS VL: DIQMTQSPSSVSASVGDRVTITCRASQGISSWLAWHQQKPGKAPKVLIYAASSLHSGVPSRFSGSGSGTEFTLTISSLQPEDFATYYCQQANTFPYTFGQGTKLEIK ... 60

Attention now shifts to the item below.
Bench note: what % Blockade of IFNγ release, MLR; D6 did H4H1763N (antibody, human IgG4, V domains shown, Human IgG4 Fc (H4H) form of 1763N) VH: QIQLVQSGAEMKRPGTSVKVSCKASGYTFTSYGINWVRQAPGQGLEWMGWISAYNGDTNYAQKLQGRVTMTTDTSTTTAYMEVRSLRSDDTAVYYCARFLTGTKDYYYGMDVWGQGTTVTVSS VL: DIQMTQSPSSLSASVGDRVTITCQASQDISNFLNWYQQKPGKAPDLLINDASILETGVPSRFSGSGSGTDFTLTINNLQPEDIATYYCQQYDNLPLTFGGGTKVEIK show?
75
